All figures here come from paper PMC3558982.

- Experimental target: protein kinase Akt (Homo sapiens)
- Method summary: Inhibition of Akt phosphorylation at threonine 308 by PDK1
- Format: biochemical
- Test context: read-out: IC50, inhibition of Akt phosphorylation at threonine 308; purified inactive Akt and activated PDK1; three independent experiments
pIC50: −log10 of the molar value.
Readout type: pIC50

given_smiles=O=P(O)(O)CP(=O)(O)O[C@H]1[C@H](OP(=O)(O)O)[C@@H](OP(=O)(O)O)[C@@H](OP(=O)(O)O)[C@@H](OP(=O)(O)O)[C@@H]1OP(=O)(O)O experimental_target="protein kinase Akt (Homo sapiens)" readout_type=pIC50 observed_value=6.89

----------
- Experimental target: UniProtKB Q99321
- Sequence (Q99321 whole entry): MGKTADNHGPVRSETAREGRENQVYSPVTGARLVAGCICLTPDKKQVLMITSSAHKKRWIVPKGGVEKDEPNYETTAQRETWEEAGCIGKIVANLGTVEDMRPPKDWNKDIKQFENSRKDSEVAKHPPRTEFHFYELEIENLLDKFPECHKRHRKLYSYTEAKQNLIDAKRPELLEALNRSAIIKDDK
Readout type: IC50

compound="O=P(O)(O)O[C@H]1[C@@H](OP(=O)(O)O)[C@H](OP(=O)(O)O)[C@@H](OP(=O)(O)OP(=O)(O)O)[C@H](OP(=O)(O)O)[C@H]1OP(=O)(O)O [5PP-IP5, reference compound]" experimental_target="UniProtKB Q99321" readout_type=IC50 observed_value="2500 nM"

----------
- Experimental target: protein kinase Akt (Homo sapiens, UniProt P31749)
- Sequence (P31749 whole entry): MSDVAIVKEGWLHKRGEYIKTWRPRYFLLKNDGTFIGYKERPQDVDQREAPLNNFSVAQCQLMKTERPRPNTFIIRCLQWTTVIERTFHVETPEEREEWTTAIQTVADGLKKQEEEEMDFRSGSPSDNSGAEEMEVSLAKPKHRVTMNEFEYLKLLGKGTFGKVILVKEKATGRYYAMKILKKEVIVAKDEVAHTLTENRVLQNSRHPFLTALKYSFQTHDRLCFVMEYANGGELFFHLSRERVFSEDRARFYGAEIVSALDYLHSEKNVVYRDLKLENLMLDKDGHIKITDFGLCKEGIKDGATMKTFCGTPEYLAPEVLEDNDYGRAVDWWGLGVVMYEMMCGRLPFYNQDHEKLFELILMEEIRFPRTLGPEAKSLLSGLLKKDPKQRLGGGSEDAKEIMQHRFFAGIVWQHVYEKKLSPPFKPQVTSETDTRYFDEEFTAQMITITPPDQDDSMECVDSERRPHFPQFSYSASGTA
- Method summary: Inhibition of Akt phosphorylation at threonine 308 by PDK1
- Format: biochemical
pIC50: −log10 of the molar value.
Readout type: pIC50

compound="O=P(O)(O)O[C@H]1[C@@H](OP(=O)(O)O)[C@H](OP(=O)(O)O)[C@@H](OP(=O)(O)OP(=O)(O)O)[C@H](OP(=O)(O)O)[C@H]1OP(=O)(O)O [5PP-IP5, reference compound]" observed_value=6.66
